read-out: Interleukin-8 (IL8), CXCL8 (gene 3576); assay: BSK_hDFCGF_IL8: BioMAP Diversity Plus: hDFCGF Assay for Interleukin-8 (IL8) Biomarker Activity (AID 2283058); conditions: primary human foreskin fibroblasts; actives raise or lower the signal
Activity calls are given as the source filed them. The calls were made as follows: active = hit-call score of the fitted dose curve at least 0.9, where 1 is the maximum; inactive = score below 0.9.
Entry note: the call must match one of t = active, f = inactive

// known answers, use as guide
## Task Outcome logged for O=S1(=O)CC(Cl)(Cl)C(Cl)(Cl)C1 in this assay:
## Result f

## Task Given c1ccc(OCCOc2ccccc2)cc1 , state the outcome it received in this test.
## Result f

## Task Could you kindly confirm the outcome this assay logged for COc1ccccc1NC(=O)CC(C)=O ?
## Result f

## Task Hi, do you know how C#C[C@]1(O)CC[C@H]2[C@@H]3CCc4cc(O)ccc4[C@H]3CC[C@@]21C came out in this test?
## Result f

## Task Entry Nc1ccc(N)c([N+](=O)[O-])c1 : call = ?
## Result f

## Task Hi, do you know how CCCCOCCOCCO came out in this test?
## Result f

New cases:
## Task What was the test verdict on CC(C)CCCC(C)(C)O ?
## Result f

## Task Dear all, I need the recorded test outcome for CCn1cc(C(=O)O)c(=O)c2ccc(C)nc21 , thank you.
## Result f

## Task How did this test come out for CCOC(=O)CCCCCCCCC(=O)OCC ?
## Result f

## Task What outcome does the record of this test show for C=C(C)C(N)=O ?
## Result f

## Task For CC(=O)OC(C)(C)C1CC=C(C)CC1 (centres undefined) , what call appears in the results of this test?
## Result f

## Task For CC(C)(CO)CO , what call appears in the results of this test?
## Result f

## Task Given CC(=O)CCC=C(C)CCC=C(C)C , state the outcome it received in this test.
## Result f

## Task Identify the outcome logged in this assay for the compound shown: CCCCCCCCCCCCS
## Result t

----------
read-out: Human Leukocyte Antigen - DR isotype (HLADR), HLA-DRA (gene 3122); assay: BSK_3C_HLADR: BioMAP Diversity Plus: 3C Assay for Human Leukocyte Antigen - DR isotype (HLADR) Biomarker Activity (AID 2283019); settings: primary human endothelial cells (HUVEC); actives raise or lower the signal;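 as to outcome: ELISA of cell-surface HLA-DR on HUVEC 24 h after dosing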
Active and inactive are the calls of the source. How the source made its calls: active means hit-call score of the fitted dose curve at least 0.9, where 1 is the maximum; inactive means score below 0.9.
Your reply should match one of these outcome classes. True = active, False = inactive

These recorded examples may help you get a feel for the data.
## Task What is the recorded call for this molecule in the test? CCCCCCCCCC(=O)OCC
## Result True

## Task Assay result, entry C=C(F)C(=O)OC(C(F)(F)F)C(F)(F)F — outcome?
## Result False

## Task Give the logged outcome of this assay for the following molecule: CC(=O)OCC=C(C)CCC=C(C)CCC=C(C)C
## Result False

## Task How did this test come out for CC(C)(C)c1cccc(O)c1 ?
## Result False

Next:
## Task Returns: the outcome recorded for O=C1OC2(c3ccc(O)cc3Oc3cc(O)ccc32)c2ccccc21 in this assay.
## Result True

## Task Field: outcome | Entry: CCCCOCCOCCO
## Result False

## Task Outcome logged for CC=CC(=O)C1=C(C)C=CCC1(C)C in this assay:
## Result False

## Task Record lookup: outcome of this test for CC(C)CCCC(C)(C)O ?
## Result False

## Task In this assay, the call recorded for CCCCCCCC1CCCC1=O (centres undefined) was what?
## Result True

## Task For this molecule, state the assay outcome: CC(C)(CO)CO
## Result False

## Task In this assay, the call recorded for CC(=O)OC(C)(C)C1CC=C(C)CC1 (centres undefined) was what?
## Result True

## Task Please state the recorded outcome for this molecule: c1ccc2c(c1)-c1ccc3ccc4cccc5cc-2c1c3c45
## Result True

## Task Hello, I am checking results. What call was entered for CC1(C)[C@H](C=C(Cl)Cl)[C@H]1C(=O)OCc1cccc(Oc2ccccc2)c1 ?
## Result False

## Task Per the records of this test, what outcome belongs to CCOC(=O)C=Cc1ccccc1 ?
## Result False

## Task Outcome? COc1ccccc1NC(=O)CC(C)=O
## Result False

## Task Recorded test outcome, item NC(=O)c1c(Cl)cccc1Cl
## Result False

## Task Please state the recorded outcome for this molecule: COC(=O)c1ccc(C(=O)OC)cc1
## Result False

## Task Assay outcome for c1ccc(Sc2ccccc2)cc1 : what was it?
## Result True

## Task Would you mind telling me which call this test gave O=C(O)C(F)(F)OC(F)(F)C(F)(F)OC(F)(F)C(F)(F)C(F)(F)C(F)(F)F ?
## Result False
